- ASSAY PROTOCOL: total protein half-life in vivo (active degradation + dilution); higher = more stable protein
- MEASUREMENT CONDITIONS: wild type E. coli NCM3722; growth: C-lim chemostat; doubling time 3 h
Can you tell me total protein half-life in vivo for the items I'm about to list?
Numbers only, in h.

BIOPOLYMER SEQUENCE	ENDPOINT UNIT	total protein half-life in vivo
MAGINLNKKLWRIPQQGMVRGVCAGIANYFDVPVKLVRILVVLSIFFGLALFTLVAYIILSFALDPMPDNMAFGEQLPSSSELLDEVDRELAASETRLREMERYVTSDTFTLRSRFRQL [P0AFN2]	h	2.5
MQSWYLLYCKRGQLQRAQEHLERQAVNCLAPMITLEKIVRGKRTAVSEPLFPNYLFVEFDPEVIHTTTINATRGVSHFVRFGASPAIVPSAVIHQLSVYKPKDIVDPATPYPGDKVIITEGAFEGFQAIFTEPDGEARSMLLLNLINKEIKHSVKNTEFRKL [P0AFW0]	h	3.08
MHVKYLAGIVGAALLMAGCSSSNELSAAGQSVRIVDEQPGAECQLIGTATGKQSNWLSGQHGEEGGSMRGAANDLRNQAAAMGGNVIYGISSPSQGMLSSFVPTDSQIIGQVYKCPN [P0AF70]	h	3.19
MKFKVIALAALMGISGMAAQANELPDGPHIVTSGTASVDAVPDIATLAIEVNVAAKDAATAKKQADERVAQYISFLELNQIAKKDISSANLRTQPDYDYQDGKSILKGYRAVRTVEVTLRQLDKLNSLLDGALKAGLNEIRSVSLGVAQPDAYKDKARKAAIDNAIHQAQELANGFHRKLGPVYSVRYHVSNYQPSPMVRMMKADAAPVSAQETYEQAAIQFDDQVDVVFQLEPVDQQPAKTPAAQ [P0ADS6]	h	3.2
MLSNDILRSVRYILKANNNDLVRILALGNVEATAEQIAVWLRKEDEEGFQRCPDIVLSSFLNGLIYEKRGKDESAPALEPERRINNNIVLKKLRIAFSLKTDDILAILTEQQFRVSMPEITAMMRAPDHKNFRECGDQFLRYFLRGLAARQHVKKG	h	3.21
MVSRRVQALLDQLRAQGIQDEQVLNALAAVPREKFVDEAFEQKAWDNIALPIGQGQTISQPYMVARMTELLELTPQSRVLEIGTGSGYQTAILAHLVQHVCSVERIKGLQWQARRRLKNLDLHNVSTRHGDGWQGWQARAPFDAIIVTAAPPEIPTALMTQLDEGGILVLPVGEEHQYLKRVRRRGGEFIIDTVEAVRFVPLVKGELA [P0A7A5]	h	2.79

Take each entry in turn and give its total protein half-life in vivo.
1. MWLLDQWAERHIAEAQAKGEFDNLAGSGEPLILDDDSHVPPELRAGYRLLKNAGCLPPELEQRREAIQLLDILKGIRHDDPQYQEVSRRLSLLELKLRQAGLSTDFLRGDYADKLLDKINDN
2. MKKLQIAVGIIRNENNEIFITRRAADAHMANKLEFPGGKIEMGETPEQAVVRELQEEVGITPQHFSLFEKLEYEFPDRHITLWFWLVERWEGEPWGKEGQPGEWMSLVGLNADDFPPANEPVIAKLKRL

3.06
3.35

----------
- ASSAY PROTOCOL: total protein half-life in vivo (active degradation + dilution); higher = more stable protein
- MEASUREMENT CONDITIONS: wild type E. coli NCM3722; growth: C-lim chemostat; doubling time 12 h
MEASURE NAME: total protein half-life in vivo (h)
One number for each entry, in h.

BIOPOLYMER SEQUENCE	ENDPOINT UNIT	total protein half-life in vivo
MKQPGEELQETLTELDDRAVVDYLIKNPEFFIRNARAVEAIRVPHPVRGTVSLVEWHMARARNHIHVLEENMALLMEQAIANEGLFYRLLYLQRSLTAASSLDDMLMRFHRWARDLGLAGASLRLFPDRWRLGAPSNHTHLALSRQSFEPLRIQRLGQEQHYLGPLNGPELLVVLPEAKAVGSVAMSMLGSDADLGVVLFTSRDASHYQQGQGTQLLHEIALMLPELLERWIERV	h	2.74

Continue with the next sequence.
For MGKSIVVVSAVNFTTGGPFTILKKFLAATNNKENVSFIALVHSAKELKESYPWVKFIEFPEVKGSWLKRLHFEYVVCKKLSKELNATHWICLHDITANVVTKKRYVYCHNPAPFYKGILFREILMEPSFFLFKMLYGLIYKINIKKNTAVFVQQFWMKEKFIKKYSINNIIVSRPEIKLSDKSQLTDDDSQFKNNPSELTIFYPAVPRVFKNYELIISAARKLKEQSNIKFLLTISGTENAYAKYIISLAEGLDNVHFLGYLDKEKIDHCYNISDIVCFPSRLETWGLPLSEAKERGKWVLASDFPFTRETLGSYEKKAFFDSNNDDMLVKLIIDFKKGNLKKDISDANFIYRNENVLVGFDELVNFITEEH , what is its reported total protein half-life in vivo?
10.5

----------
- ASSAY PROTOCOL: total protein half-life in vivo (active degradation + dilution); higher = more stable protein
- MEASUREMENT CONDITIONS: E. coli NCM3722 delta-lon; growth: N-lim chemostat; doubling time 6 h
Can you tell me total protein half-life in vivo for the items I'm about to list?
Numbers only, in h.

Below are worked cases with known answers.
BIOPOLYMER SEQUENCE	MEASURE NAME	VALUE
MSRFIPIELHHASRLLNHGPTVLITSFDEQSQRRNIMAAAWSMPVEFEPPRVAIVVDKSTWTRELIEHNGKFGIVIPGVAATNWTWAVGSVSGRDEDKFNCYGIPVVRGPVFGLPLVEEKCLAWMECRLLPATSAQEEYDTLFGEVVSAAADARVFVEGRWQFDDDKLNTLHHLGAGTFVTSGKRVTAG	total protein half-life in vivo	4.25
MQIIFGEKCVSLLRLFFAAVLMLWCAQTAAYSGQCHTTQGNPYIGVNFGVKTLEEEANTAGVVKDKFYQWNESNDYYVSCDCDKDNVRSGRWAFAADSPLVYLGDNWYKINDYLAAKVLLQVKGSSPTAVPFENVGTGGDTRWHICDPGGQRLGGQGASGNSGSFSLKILQPFVGSVVIPPMALARLYECYNIPAGDSCTTTGTPVLVYYLSGTINSLGSCSVNAGETIEVDLGDVFAANFRVVGHKPLGARTAELAIPVRCNTGNAGLVNVNLSLTATTDPSYPQAIKTSRPGVGVVVTDSQNNIISPAGGTLPLSIPDDADSIARMNVYPVSTTGVPPETGRFEATATVRINFD	total protein half-life in vivo	6.21

Continue with the next sequence.
For MPSFDIVSEVDLQEARNAVDNASREVESRFDFRNVEASFELNDASKTIKVLSESDFQVNQLLDILRAKLLKRGIEGSSLDVPENIVHSGKTWFVEAKLKQGIESATQKKIVKMIKDSKLKVQAQIQGDEIRVTGKSRDDLQAVMAMVRGGDLGQPFQFKNFRD [P0A8E7] , what is its reported total protein half-life in vivo?
6.83

----------
Can you tell me total protein half-life in vivo for the items I'm about to list?
- ASSAY PROTOCOL: total protein half-life in vivo (active degradation + dilution); higher = more stable protein
- MEASUREMENT CONDITIONS: E. coli NCM3722 delta-hslV; growth: N-lim chemostat; doubling time 6 h
One number for each entry, in h.

BIOPOLYMER SEQUENCE	MEASURE NAME	VALUE
MWSEYSLEVVDAVARNGSFSAAAQELHRVPSAVSYTVRQLEEWLAVPLFERRHRDVELTAAGAWFLKEGRSVVKKMQITRQQCQQIANGWRGQLAIAVDNIVRPERTRQMIVDFYRHFDDVELLVFQEVFNGVWDALSDGRVELAIGATRAIPVGGRYAFRDMGMLSWSCVVASHHPLALMDGPFSDDTLRNWPSLVREDTSRTLPKRITWLLDNQKRVVVPDWESSATCISAGLCIGMVPTHFAKPWLNEGKWVALELENPFPDSACCLTWQQNDMSPALTWLLEYLGDSETLNKEWLREPEETPATGD [P0ACR2]	total protein half-life in vivo	4.85

Continue with the next sequence.
For MRIFVYGSLRHKQGNSHWMTNAQLLGDFSIDNYQLYSLGHYPGAVPGNGTVHGEVYRIDNATLAELDALRTRGGEYARQLIQTPYGSAWMYVYQRPVDGLKLIESGDWLDRDK [P0AE48] , what is its reported total protein half-life in vivo?
4.95

----------
- ASSAY PROTOCOL: total protein half-life in vivo (active degradation + dilution); higher = more stable protein
- MEASUREMENT CONDITIONS: wild type E. coli NCM3722; growth: C-lim chemostat; doubling time 3 h
Can you tell me total protein half-life in vivo for the items I'm about to list?
Give bare numbers, in h.

BIOPOLYMER SEQUENCE	VALUE
MKHDHFVVQSPDKPAQQLLLLFHGVGDNPVAMGEIGNWFAPLFPDALVVSVGGAEPSGNPAGRQWFSVQGITEDNRQARVDAIMPTFIETVRYWQKQSGVGANATALIGFSQGAIMVLESIKAEPGLASRVIAFNGRYASLPETASTATTIHLIHGGEDPVIDLAHAVAAQEALISAGGDVTLDIVEDLGHAIDNRSMQFALDHLRYTIPKHYFDEALSGGKPGDDDVIEMM	3.16
MIEWQDLHHSELSVSQLYALLQLRCAVFVVEQNCPYQDIDGDDLTGDNRHILGWKNDELVAYARILKSDDDLEPVVIGRVIVSEALRGEKVGQQLMSKTLETCTHHWPDKPVYLGAQAHLQNFYQSFGFIPVTEVYEEDGIPHIGMAREVIQA [P0AEH3]	2.35

Continue with the next sequence.
For MKKWSRHLLAAGALALGMSAAHADDNNTLYFYNWTEYVPPGLLEQFTKETGIKVIYSTYESNETMYAKLKTYKDGAYDLVVPSTYYVDKMRKEGMIQKIDKSKLTNFSNLDPDMLNKPFDPNNDYSIPYIWGATAIGVNGDAVDPKSVTSWADLWKPEYKGSLLLTDDAREVFQMALRKLGYSGNTTDPKEIEAAYNELKKLMPNVAAFNSDNPANPYMEGEVNLGMIWNGSAFVARQAGTPIDVVWPKEGGIFWMDSLAIPANAKNKEGALKLINFLLRPDVAKQVAETIGYPTPNLAARKLLSPEVANDKTLYPDAETIKNGEWQNDVGAASSIYEEYYQKLKAGR [P0AFK9] , what is its reported total protein half-life in vivo?
3.44
